Test system: DLG1 PDZ1
Assay: Phosphomimetic ProP-PD selection with NGS
Type: binding, human
Conditions: mean of selections 1-3; bait DLG1 PDZ1; wild type peptide
Listing: Mean fraction #NGS counts wt peptide / total counts selection of selected sequences
No unit in the answer, please; the number alone is enough.

1) RISSLESEV 0.0001168
2) KLSSIESDV 2.936e-5
3) TMFLRETSL 0.0004495
4) ASSPGGTVV 2.813e-5
5) YPGSPDSWV 3.476e-5
6) LPKIKETTV 0.004479
7) PANRRTTPV 0
8) ERLRVETDV 0.0001761

// sequence HSIKQSTAV , assay DLG1 PDZ1, Mean fraction #NGS counts wt peptide / total counts selection value: 0.0004538

Mean fraction #NGS counts wt peptide / total counts selection for DLG1 PDZ1 with input KPSRISTVV equals 0

Form field, Mean fraction #NGS counts wt peptide / total counts selection with DLG1 PDZ1, item SARLWETSI : 5.924e-6

Entry GGKRKETLV ; assay system DLG1 PDZ1; Mean fraction #NGS counts wt peptide / total counts selection recorded at 0.3267

The reported DLG1 PDZ1 Mean fraction #NGS counts wt peptide / total counts selection of KRSFIESNV is 0.0007809

Short answer on DLG1 PDZ1 for TRLSQHTDV , Mean fraction #NGS counts wt peptide / total counts selection: 0.0004744

I looked up MRLQSETSV and its Mean fraction #NGS counts wt peptide / total counts selection for DLG1 PDZ1 was 1.185e-6

Bench note, DLG1 PDZ1: entry TIKLKTSFF , its Mean fraction #NGS counts wt peptide / total counts selection = 0

The sequence ESREVTTYL , tested on DLG1 PDZ1, showed Mean fraction #NGS counts wt peptide / total counts selection of 0

Given the sequence SSGHTSTTL and test system DLG1 PDZ1, the measured Mean fraction #NGS counts wt peptide / total counts selection is 0

Bench note, DLG1 PDZ1: SSGSQHTNV , Mean fraction #NGS counts wt peptide / total counts selection reads 5.9593e-5

----------
Recorded Mean fraction #NGS counts wt peptide / total counts selection, one value per entry.
Biological target: DLG1 PDZ2 (Homo sapiens)
Construct: human DLG1 PDZ2 aa 311–407 in a modified pRSET vector 40; made in house; host or cells: E. coli BL21 Gold (DE3)
Sequence (Q12959 311-407): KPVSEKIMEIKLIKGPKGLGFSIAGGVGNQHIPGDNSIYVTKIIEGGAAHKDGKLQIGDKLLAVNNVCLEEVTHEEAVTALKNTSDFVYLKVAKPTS
Assay: Phosphomimetic ProP-PD selection with NGS
Type: binding
Conditions: mean of selections 1-3; bait DLG1 PDZ2; wild type peptide

Completed entries (count: 3):
1) RISSLESEV 0.00571
2) KRSFIESNV 0.007809
3) TIKLKTSFF 4.36e-5

The sequence KPSRISTVV on DLG1 PDZ2 (Homo sapiens): Mean fraction #NGS counts wt peptide / total counts selection was 2.5129e-5

DLG1 PDZ2 (Homo sapiens) Mean fraction #NGS counts wt peptide / total counts selection of HSIKQSTAV is 5.408e-5

Case RSSMKPGFV , DLG1 PDZ2 (Homo sapiens), Mean fraction #NGS counts wt peptide / total counts selection recorded as 0.02056

Test item SATSVHTSV ; DLG1 PDZ2 (Homo sapiens); reported Mean fraction #NGS counts wt peptide / total counts selection was 0.0005933

// Mean fraction #NGS counts wt peptide / total counts selection (DLG1 PDZ2 (Homo sapiens)) for GSGGRQSVV = 0.003121

GET /values?item= SGSYLVTSV &system= DLG1 PDZ2 (Homo sapiens) returns Mean fraction #NGS counts wt peptide / total counts selection: 0.0001258

Values from paper PMC6100724
